Below: compounds with Ki recorded for UniProt P34969 in separate published works.

- COMPOUND: "CCN(CCN1CCC(c2noc3ccccc23)CC1)S(=O)(=O)CCO"
  Ki: "12.7 nM"
- COMPOUND: "Cc1c(C(=O)N[C@@H]2CCN(C)C2)cc(C(C)(C)C)n1CCc1ccc(F)cc1"
  Ki: "14 nM"
- COMPOUND: "CCN(CCN1CCC(c2noc3cc(F)ccc23)CC1)C(=O)CO"
  Ki: "6.9 nM"
- COMPOUND: "Cc1c(C(=O)NCCN(C)C)cc(C(C)(C)C)n1OCc1ccc(F)cc1"
  Ki: "3.1 nM"
- COMPOUND: "CCC1(OC)c2ccccc2-c2ccc(C(=O)N=C(N)N)cc21 (stereo not drawn)"
  Ki: "0.4 to 310 nM"
- COMPOUND: "NC(N)=NC(=O)c1ccc2c(c1)C(O)c1c(Cl)cccc1-2 (stereo not drawn)"
  Ki: "0.4 to 310 nM"
- COMPOUND: "CCN(CCN1CCC(c2c[nH]c3ccccc23)CC1)C(=O)C(C)O (stereo not drawn)"
  Ki: "5.8 nM"
- COMPOUND: "CCN(CCCN1CCN(c2noc3cc(F)ccc23)CC1)S(=O)(=O)C(C)CO (stereo not drawn)"
  Ki: "0.1 nM"
- COMPOUND: "CCN(CCN1CCC(c2noc3ccc(C)cc23)CC1)C(=O)[C@H](C)O"
  Ki: "14.6 nM"
